- System: zebrafish hearing thresholds
- assay-explanation: Auditory evoked potential (AEP) testing in zebrafish inner ear model
- Assay type: in vivo, Danio rerio
- stated-conditions: 600 Hz, 25 mg/kg i.p., 48 h
observable: AEP hearing threshold, significance of pairwise comparison against vehicle

[Cl][Pt-2]12[NH2+]CC[NH+]1CC[NH2+]2 (stereo not shown) [[Pt(dien)Cl]^+, Pt(diethylenetriamine)Cl]; **** (**** p ≤ 0.0001)
CC[N+]1(CC)CC[NH+]2CC[NH2+][Pt-2]21[Cl] (stereo not shown) [[Pt(Et2dien)Cl]^+, Pt(N,N-diethyldiethylenetriamine)Cl]; **** (**** p ≤ 0.0001)
